// self-splicing fitness (ln) lookup, one value per entry
Test: self-splicing fitness, log relative to wild type (ln ratio); higher = more splicing; Tetrahymena group I intron in knt gene, E. coli kanamycin selection, DiMSum; sequences stand for … in CUCUCU…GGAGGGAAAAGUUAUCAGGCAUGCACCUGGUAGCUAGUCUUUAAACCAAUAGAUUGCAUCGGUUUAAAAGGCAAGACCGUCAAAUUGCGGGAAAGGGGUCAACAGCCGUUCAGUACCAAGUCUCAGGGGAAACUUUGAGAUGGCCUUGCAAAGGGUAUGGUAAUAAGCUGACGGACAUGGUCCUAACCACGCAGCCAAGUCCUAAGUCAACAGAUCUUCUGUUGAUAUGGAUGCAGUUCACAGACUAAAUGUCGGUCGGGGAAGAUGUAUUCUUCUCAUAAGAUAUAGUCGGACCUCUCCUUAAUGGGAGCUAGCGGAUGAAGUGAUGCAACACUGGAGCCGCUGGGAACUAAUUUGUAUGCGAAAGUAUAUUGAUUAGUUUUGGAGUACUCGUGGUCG;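 further: selection with 25 µg/mL kanamycin versus none on LB agar overnight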
Details: 30 °C
Answer with a bare number; do not write a unit.

// known answers, use as guide
         entry_sequence  experimental_value
0  GACGAGCAAUAUUACGCAUU               -2.74
1  UCAGAGCAAUAUUACGAAUC               -2.45
2  ACUGAGCAAUAUUACGGGGU               -2.72
3  GUCUAGCAAUAUUACGACAG               -2.33
4  CUCUAGCAAUAUUACGGUAC               -2.88
5  UGACAGCAAUAUUACGCGUA               -0.95
6  UUAAAGCAAUAUUACGAGCU              -0.888
7  GAACAGCAAUAUUACGACCA              -0.754

Lookup: Give the value of self-splicing fitness (ln) reported for the following: CAGUAGCAAUAUUACGGCUU
Found: -1.58

Lookup: Give the value of self-splicing fitness (ln) reported for the following: ACACAGCAAUAUUACGUGCU
Found: -1.34

Lookup: Give the value of self-splicing fitness (ln) reported for the following: UAACAGCAAUAUUACGUGAA
Found: -1.61

Lookup: Give the value of self-splicing fitness (ln) reported for the following: GCGGAGCAAUAUUACGGGGU
Found: -1.55

Lookup: Give the value of self-splicing fitness (ln) reported for the following: UCUGAGCAAUAUUACGAAUC
Found: -3.29
